Cited source: patent US20220119522A1

molecular target: T1, human TREM2 truncated stalk peptide (aa 149-163) (human, also: biotinylated (site not given here)); assay: ELISA on biotinylated peptide captured by streptavidin; A450 normalised to isotype control
T1 construct: also called Human TREM2 peptide (aa 149-163); truncated stalk peptide containing the ADAM10/17 cleavage site
T1 peptide: SFEDAHVEHSISRSL
No end group written: not given here.
Each record here notes measured fold over background (A450).
Value expressed in fold; do not type the unit.

BINDER	fold over background (A450), fold
CL0020111 (antibody, V domains shown, also called Clone CL0020111) VH: QVQLQQPGADLVKPGASVKMSCKASGYTFTNYWITWVQQRPGQGLEWIGDIYPGSGNTNYNEKFRSKATLTVDTSSNTAYMQLSSLTSEDSAVYYCSREGYGISAWGQGTTLTVSS VL: QIVLTQSPAFMSASPGEKVTITCRASSSVSYMHWFQQKPGTSPKLWIFSTSNLASGVPARFSGSGSGTSHSLTISRMEAEDAATYYCQQRSGYPLTFGAGTKLELK	1.6

Consider now this further binder.
Report fold over background (A450) for CL0020127 (antibody, V domains shown, also called Clone CL0020127) VH: EVQLQQSGPVLVKPGASVKMSCKASGYKFTDYYMNWVKQSHGKSLEWIGTINPYSGGISYNQKFKGKATLTVDKSSSTAYMELNSLTSEASAVYYCTRRNWDGRYAMDYWGQGTSVTVSS VL: DIVMTQSHKFMSTSVGDRVSITCKASQDVSTAVAWYQQKPGQSPKLLIYWASTRHTGVPDRFTGSGSGTDFTLTISNVQSEDLAEYFCQQYSSYPFTFGGGTKLEIK please. 1.2
